Target: human CD33 T303A (human, UniProt P20138 18-364)
Sequence (P20138 18-364 T303A limits assumed): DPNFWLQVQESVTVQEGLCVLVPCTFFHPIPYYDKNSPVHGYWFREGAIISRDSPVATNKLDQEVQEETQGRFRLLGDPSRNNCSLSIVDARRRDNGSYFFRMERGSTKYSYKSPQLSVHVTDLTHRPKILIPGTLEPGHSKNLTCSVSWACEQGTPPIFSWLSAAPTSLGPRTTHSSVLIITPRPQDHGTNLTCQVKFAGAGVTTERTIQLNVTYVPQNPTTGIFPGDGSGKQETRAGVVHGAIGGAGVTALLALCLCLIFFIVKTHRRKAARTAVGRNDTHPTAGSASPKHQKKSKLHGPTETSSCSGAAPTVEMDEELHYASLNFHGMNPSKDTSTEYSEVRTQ
Assay: alanine scan, flow cytometry, HEK293-T;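 also: antibody binding to each alanine-substituted CD33 mutant expressed transiently in HEK293-T, read as fluorescence minus background, mean of duplicates, relative to wild-type CD33 set as 100%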
metric: Mean % WT Binding (% WT binding)

- binder: "Refmab #3 (antibody, V domains shown, The alanine scan used IgG or Fab) VH: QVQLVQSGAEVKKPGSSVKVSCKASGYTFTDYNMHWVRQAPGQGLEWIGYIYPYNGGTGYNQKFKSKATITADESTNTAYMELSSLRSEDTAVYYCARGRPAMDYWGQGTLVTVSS VL: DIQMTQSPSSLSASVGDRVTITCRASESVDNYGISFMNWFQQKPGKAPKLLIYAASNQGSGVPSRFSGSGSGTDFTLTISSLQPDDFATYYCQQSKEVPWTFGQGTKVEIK"
  metric: "Mean % WT Binding"
  readout-number: 72.7
- binder: "Refmab #1 (antibody, V domains shown, The alanine scan used IgG or Fab; also called hP67.6) VH: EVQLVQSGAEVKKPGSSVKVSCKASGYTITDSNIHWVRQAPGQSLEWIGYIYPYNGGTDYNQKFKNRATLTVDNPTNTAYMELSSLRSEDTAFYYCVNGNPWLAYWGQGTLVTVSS VL: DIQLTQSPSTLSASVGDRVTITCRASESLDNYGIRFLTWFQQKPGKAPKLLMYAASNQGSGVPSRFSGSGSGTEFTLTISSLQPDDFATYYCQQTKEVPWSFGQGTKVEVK"
  metric: "Mean % WT Binding"
  readout-number: 94
- binder: "Refmab #4 (antibody, V domains shown, The alanine scan used IgG or Fab) VH: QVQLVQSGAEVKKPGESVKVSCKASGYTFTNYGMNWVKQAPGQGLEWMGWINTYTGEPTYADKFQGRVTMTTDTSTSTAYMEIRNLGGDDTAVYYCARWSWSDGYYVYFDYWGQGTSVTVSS VL: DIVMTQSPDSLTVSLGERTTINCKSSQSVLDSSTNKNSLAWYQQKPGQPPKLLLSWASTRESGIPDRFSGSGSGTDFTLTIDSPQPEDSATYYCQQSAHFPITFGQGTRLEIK"
  metric: "Mean % WT Binding"
  readout-number: 81.2
- binder: "Refmab #2 (antibody, V domains shown, The alanine scan used IgG or Fab) VH: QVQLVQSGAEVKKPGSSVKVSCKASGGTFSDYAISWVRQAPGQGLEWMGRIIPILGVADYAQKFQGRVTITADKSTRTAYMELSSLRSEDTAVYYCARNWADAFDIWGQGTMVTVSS VL: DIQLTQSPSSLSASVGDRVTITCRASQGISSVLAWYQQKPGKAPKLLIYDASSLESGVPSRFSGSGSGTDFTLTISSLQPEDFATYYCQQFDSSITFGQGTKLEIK"
  metric: "Mean % WT Binding"
  readout-number: 96.7
